Quick reference: inhibition of the listed items.
# system_name: Glucose transporter (Leishmania mexicana)
# assay_name: ST_JUDE_LEISH: Cytotoxicity at 2uM final concentration against transgenic Leishmania Mexicana promastigotes LmGT2 that are glucose transport deficient and complemented with the L. Mexicana glucose transporter 2. Activity is measured by DNA content using SYBR green in vitro
# Format: functional

compound	unit_label	inhibition
CC(C)CC(=O)N1CCNC[C@@H]1C(=O)NCCSCc1c(F)cccc1Cl	%	4.3
NC1=NC(Cc2ccccc2)N(c2ccc(Cl)cc2)C(N)=N1 (stereo not given)	%	5.89
COc1ccc2nccc([C@@H](O)CN3CCC(NCc4cnc5c(c4)NC(=O)CS5)C(F)C3)c2c1 (stereo not given in full)	%	0.86
Cc1c(-c2ccc(C(=O)NC3CC(C)(C)NC(C)(C)C3)cc2)[nH]c2cc(Cl)c(Cl)cc12	%	13.8
OC(CNc1ccnc(Nc2ccc(Cl)cc2)n1)c1ccc(C(F)(F)F)cc1 (stereo not given)	%	2.64
